Here's a roundup of log10 IC50 values tested on Epidermal growth factor receptor (Homo sapiens), taken from various published works.
Each number you see is log10 of IC50, and the unit inside the log is nM.

Example cases with answers are listed next.
[
  {
    "structureNotation": "COc1cc2ncnc(Nc3cccc(Br)c3)c2cc1NC(=O)/C(F)=C/CN(C)C",
    "val": 0.41
  },
  {
    "structureNotation": "Fc1cccc(Nc2ncnc3cc(OCCCN4CCOCC4)c4c(c23)OCCO4)c1",
    "val": 1.92
  },
  {
    "structureNotation": "C=CC(=O)Nc1cccc(-n2c(=O)cc(CCC)c3cnc(Nc4ccc(N5CCN(C)CC5)cc4OC)nc32)c1",
    "val": 2.99
  }
]

q: Specify log10 IC50 for `CN(C)C(=O)CCc1c(SSc2[nH]c3ccccc3c2CCC(=O)N(C)C)[nH]c2ccccc12` and stop.
a: 4.08

q: Specify log10 IC50 for `COc1cc2ncnc(Nc3ccc(Br)cc3F)c2cc1OC` and stop.
a: 3.76
